Each entry below carries its recorded interaction score.
Molecular target: T1, 4H953-bA
T1 chain: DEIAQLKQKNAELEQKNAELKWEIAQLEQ
Experiment: two-hybrid library CCNG1;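 further: natural log of median RNA to DNA barcode read ratio; higher means stronger binding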
Number only, no unit.

Illustrative cases are given below, each with its answer.
- Binder: "DEIAQLEQKNAELKQEIAELKWEIAQLEQ [4H457-bA]"
  interaction score: -0.948
- Binder: "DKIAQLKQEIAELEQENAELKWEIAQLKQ [4H2586-bA]"
  interaction score: 1.17
- Binder: "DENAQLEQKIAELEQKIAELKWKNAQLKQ [4H1328-bA]"
  interaction score: -0.977
- Binder: "DKNAQLKQKIAELEQEIAELEWENAQLEQ [4H3843-bA]"
  interaction score: -1.38
- Binder: "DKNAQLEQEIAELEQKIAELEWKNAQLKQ [4H3112-bA]"
  interaction score: -0.984
- Binder: "DEIAQLKQEIAELEQKNAELKWKNAQLEQ [4H575-bA]"
  interaction score: -0.885

Req: Consider the binder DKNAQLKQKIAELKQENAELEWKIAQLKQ [4H3926-bA] and give its measured interaction score.
Resp: 0.769

Req: Try the binder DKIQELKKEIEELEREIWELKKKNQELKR [4H2576-bH]
Resp: -1.63
